# System name: recombinant human muscarinic acetylcholine receptor subtype 1 (mAChR-M1) (Homo sapiens, UniProt P11229)
# Sequence (P11229 1-460): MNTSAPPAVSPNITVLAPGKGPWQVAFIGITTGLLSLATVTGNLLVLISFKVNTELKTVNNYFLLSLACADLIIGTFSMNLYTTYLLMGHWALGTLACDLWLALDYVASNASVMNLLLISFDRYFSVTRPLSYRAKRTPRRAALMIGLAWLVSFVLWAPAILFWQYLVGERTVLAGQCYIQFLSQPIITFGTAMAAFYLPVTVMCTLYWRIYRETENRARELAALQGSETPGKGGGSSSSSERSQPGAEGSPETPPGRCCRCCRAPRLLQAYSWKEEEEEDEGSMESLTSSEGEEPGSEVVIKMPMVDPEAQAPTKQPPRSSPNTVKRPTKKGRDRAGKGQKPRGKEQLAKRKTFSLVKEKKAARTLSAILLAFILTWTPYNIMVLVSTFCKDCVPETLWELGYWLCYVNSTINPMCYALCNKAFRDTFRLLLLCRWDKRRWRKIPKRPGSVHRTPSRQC
# Experiment notes: Inhibition of [3H]N-methyl-scopolamine binding to muscarinic acetylcholine receptor subtype 1
# Details: control compound, read-out: concentration inhibiting the ligand binding to receptor by 50%
Measured quantity: IC50 (nM)
# value in nM; strip the unit string

Query :: # return recorded IC50 for input C[N+]1(C)CCC(OC(=O)C(c2ccccc2)c2ccccc2)CC1 [4-DAMP methiodide]
Result :: 24
